assay: qHTS of pediatric cancer cell lines to identify multiple opportunities for drug repurposing: Primary screen for SK-N-MC cells (AID 1347093); conditions: SK-N-MC viability, CellTiter-Glo luminescence, 48 h; series mostly up to 46 µM
Records with an inconclusive call do not appear. Calls of active or inactive are those of the source. The call rests on the fitted dose curve; in most records, active means well fitted cell-killing curve with a large enough effect; inconclusive means small, poorly fitted or top-dose-only effect; inactive means no such curve, though single readings can be large or run the other way.
Outcomes: true = active, false = inactive

molecule: Cc1[nH]c(=O)c(C#N)cc1-c1ccc2nccn2c1
categoryLabel: false

molecule: CCCCNc1cc(C(=O)O)cc(S(N)(=O)=O)c1Oc1ccccc1
categoryLabel: false

molecule: CC(c1cc2ccccc2s1)N(O)C(N)=O (stereo unspecified)
categoryLabel: false

molecule: Cc1cccc(-c2[nH]c(C(C)(C)C)nc2-c2ccc3nccnc3c2)n1
categoryLabel: true

molecule: COc1ccccc1[C@H](c1cccc2ccccc12)[C@@](C)(C#N)C(=O)N1CCC(c2cccc(C(F)(F)F)c2)CC1
categoryLabel: true

molecule: Cn1cc(-c2ccc3nnc(C(F)(F)c4ccc5ncccc5c4)n3n2)cn1
categoryLabel: false
